B1: tRNA (parent)
chain: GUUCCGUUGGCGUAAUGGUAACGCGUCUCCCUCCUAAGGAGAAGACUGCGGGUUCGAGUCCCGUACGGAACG

- Variants of: B1
- measurement-description: yeast fitness relative to wild type (ratio to wild type); higher = fitter; tRNA-Arg(CCU), competitive growth, 37 C, YPD
Fewer inactive variants are shown than the library holds.
endpoint-label: yeast fitness

A14U G44C G52A U59C U64G | 0.646
U7C C24A C61U | 0.543
C5U U19C C66G | 0.606
U32A A45U A69C | 0.706
G25A A45C U53C C55U G56C C61A C66U | 0.564
C22U A40G C61U A70U | 0.547
U2C C55A A57C G67C G68A | 0.575
C5G G10A C33U A65C G68C | 0.55
A21G C61U A70G | 0.761
C5G C66G | 0.781
A14G A37C A65G | 0.659
C11G U13G A21G | 0.785
C4U C34A G44C | 0.636
C24A A65G | 0.654
C24U C34G A69U | 0.506
U7C G67A | 0.863
A15U G18A C27A | 1.03
C29A U35A G56A G63A | 0.525
U26C C33G A42C C49G G58C C62G | 0.616
C22U U64A | 0.837
G9C A57C | 0.56
C11U A14G C46A G51A | 0.615
U3C A21U | 0.642
G17A U19C | 0.95
U2G A14U | 0.502
G12C C29U G51A G56A G63C | 0.574
G12C U54C | 0.702
G25C U32G | 0.655
C4A C11U C29G U32A G52A | 0.596
G6A G41C | 0.863
C4U A21G U32A A40C C46A | 0.769
G6C A42C | 0.808
U28C C49U G63U | 0.531
A14G U47A G56A | 0.724
U28C A40C | 0.902
U13C A36C A43C C60A | 0.566
U3A C27U G67U | 0.606
U2A C49U C62U | 0.522
C49G G56A A69C | 0.73
U3G C11U U19C A20U A42C A65C A69U | 0.537
A45U C49A | 0.57
C27G C34G U54A | 0.6
A14G C30A C34G | 0.508
U3C G10C C34U | 0.586
C5A C55U A65G | 0.583
